Item-by-item account of TGI
test system: LOX IMVI melanoma; test: NCI tumour cell line growth inhibition, 48 h

Some solved entries appear below for comparison.
[[record]]
compound = "Cc1ccccc1NC(=O)C(=O)CC(=O)c1sc(-n2nc(-c3ccccc3)cc2-c2ccccc2)nc1C"
target = "LOX IMVI melanoma"
recorded_value = "> 100 µM"

[[record]]
compound = "CC(C)(C)OC(=O)N1CCC2(CC1)C(=O)NCN2c1ccccc1"
target = "LOX IMVI melanoma"
recorded_value = "> 100 µM"


// recorded TGI for Cc1cc2nc3c(C(OC4OC(CO)C(O)C(O)C4O)C(O)CO)nn(-c4ccc(F)cc4)c3nc2cc1C (stereo not drawn) : > 100 µM

From: PubChem BioAssay (NCI)
